- Test system: MV-4-11 (carrying MLL-AF4)
- run-description: Inhibition of proliferation of human tumor cells (Alamar Blue, 7 days), MV-4-11
- Type: cell-based
- measurement-conditions: Homo sapiens, MV4-11, 168 h, MV-4-11 cells (carrying MLL-AF4), method calls the value GI50
pIC50: −log10 of the molar value.
parameter-measured: pIC50

[a] CO[C@@H]1CCCN(CCC[C@H](C(C)C)N2CC(c3cc(-c4ccc(F)cc4C(=O)N4CCOC[C@H]4C)c4c(F)nc(C)n4c3)C2)C1 [Example 305]
[b] Cc1nc(F)c2c(-c3ccc(F)cc3C(=O)N(CC(F)F)C(C)C)cc(C3CN(C(=O)[C@@H]4CCCCN4)C3)cn12 [Example 131]
[c] Cc1nc(F)c2c(-c3ccc(F)cc3C(=O)N3[C@H](C)COC[C@H]3C)cc(C3CN(CC4CCN(C(=O)N5CC(F)(F)C5)CC4)C3)cn12 [Example 242]
For the compounds shown above, give the order from largest pIC50 to smallest. Labels, requested order.
a, c, b

====

- tested-on: Menin-MLL (Homo sapiens, UniProt O00255)
- Construct: His-Menin (M1-L615 end); purchased BIORTUS BP9210
- Sequence (O00255 1-615 isoform O00255-1): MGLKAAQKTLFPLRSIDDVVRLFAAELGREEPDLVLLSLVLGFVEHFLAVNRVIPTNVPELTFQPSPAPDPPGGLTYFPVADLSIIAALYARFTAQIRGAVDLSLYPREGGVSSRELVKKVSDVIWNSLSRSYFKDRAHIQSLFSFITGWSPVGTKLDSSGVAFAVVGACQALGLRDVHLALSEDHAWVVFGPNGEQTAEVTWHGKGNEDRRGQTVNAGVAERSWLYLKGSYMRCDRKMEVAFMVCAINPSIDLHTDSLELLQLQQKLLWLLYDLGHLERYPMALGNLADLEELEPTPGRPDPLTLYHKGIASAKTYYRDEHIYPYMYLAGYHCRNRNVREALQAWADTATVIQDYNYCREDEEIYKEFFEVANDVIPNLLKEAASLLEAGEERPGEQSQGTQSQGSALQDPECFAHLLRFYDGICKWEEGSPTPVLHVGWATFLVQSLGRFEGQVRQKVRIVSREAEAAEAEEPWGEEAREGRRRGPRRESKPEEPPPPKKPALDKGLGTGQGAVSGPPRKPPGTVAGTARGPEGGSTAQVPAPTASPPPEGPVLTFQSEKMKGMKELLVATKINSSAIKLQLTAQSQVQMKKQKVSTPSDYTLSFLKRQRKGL
- run-description: Inhibitory activity against Menin-MLL binding (fluorescence polarization)
- measurement-conditions: fluorescence polarization; 150 nM His-Menin, 15 nM FITC-MLL; 25°C for 60 min; read-out: Menin-MLL IC50
parameter-measured: IC50 (nM)

CCN(C(=O)c1cc(F)ccc1-c1cc(C2CN([C@H](CCCN3CCC(S(C)(=O)=O)CC3)C(C)C)C2)cn2c(C)ncc12)C(C)C ... 2.3
CCN(C(=O)c1cc(F)ccc1-c1cc(N2CCN(C(=O)[C@@H]3CC4CCCCC4N3)CC2)cn2c(C)nc(Cl)c12)C(C)C (stereo partly shown) ... 24

[a] CCN(C(=O)c1cc(F)ccc1-c1cc(C2CN([C@H](CCCN3CCN(C)CC3)C(C)C)C2)cc2c1cnn2C)C(C)C
[b] CCN(C(=O)c1cc(F)ccc1-c1cc(C2CN(C(CN3CCOCC3)C(C)C)C2)cn2c(C)ncc12)C(C)C (stereo not shown)
Just curious, which one has the larger IC50 reading, a or b ? To answer, give the label that identifies your chosen option.
b

====

- tested-on: Menin-MLL (Homo sapiens, UniProt O00255)
- Construct: His-Menin (M1-L615 end); purchased BIORTUS BP9210
- run-description: Inhibitory activity against Menin-MLL binding (fluorescence polarization)
- measurement-conditions: fluorescence polarization; 150 nM His-Menin, 15 nM FITC-MLL; 25°C for 60 min; read-out: Menin-MLL IC50
pIC50: −log10 of the molar value.
parameter-measured: pIC50

Worked examples, 2 molecules total:
Cc1nc(F)c2c(-c3ccc(F)cc3C(=O)N3CCOC[C@H]3C)cc(C3CN([C@H](CO[C@H]4CCN(C)C4)C(C)C)C3)cn12 [Example 322] ... 8.70
Cc1nc(F)c2c(-c3ccc(F)cc3C(=O)N3CCOC[C@H]3C)cc(C3CN(C(CO)C4CCOCC4)C3)cn12 (stereo partly drawn) [Example 309] ... 7.22

[A] CCN(C(=O)c1cc(F)ccc1-c1cc([C@H]2CCN(CC3(O)CCC(NS(=O)(=O)CC)CC3)C2)cc2c1cnn2C)C(C)C (stereo partly drawn) [Compound 55-1-2]
[B] Cc1nc(F)c2c(-c3ccc(F)cc3C(=O)N3CCOC[C@H]3C)cc(C3CN([C@@H](CC[C@@H]4CNCCO4)C(C)C)C3)cn12 [Example 245-2]
[C] CCN(C(=O)c1cc(F)ccc1-c1cc(C2CN(C(C[C@@H]3CNCCO3)C(C)C)C2)cn2c(C)ncc12)C(C)C (stereo partly drawn) [Example 462]
[D] CCN(C(=O)c1cc(F)ccc1-c1cc(C2CN([C@H](CCCN3CCNC(=O)C3)C(C)C)C2)cn2c(C)ncc12)C(C)C [Example 494]
Give the ascending ranking of the items by reported pIC50. Answer format: the labels, in the requested order.
A, B, C, D
(A: 6.92, B: 7.24, C: 7.96, D: 8.39)
